- target of assay: T1, control peptide A2E-7/HLA-A*02:01 complex on T2 cells (member of the P19 mixture) (human)
- T1 construct: Loaded on T2 cells as part of the mixture of 19 control peptides
- assay comment: flow cytometry, phage on T2 cells
value kind: binding result

Record PSA146/HLA-A*02:01-specific scFv phage clone #5 (scFv, V domains shown) VH: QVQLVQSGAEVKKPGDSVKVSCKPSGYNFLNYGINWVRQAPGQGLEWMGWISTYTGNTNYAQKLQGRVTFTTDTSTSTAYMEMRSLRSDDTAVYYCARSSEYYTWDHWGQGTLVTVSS VL: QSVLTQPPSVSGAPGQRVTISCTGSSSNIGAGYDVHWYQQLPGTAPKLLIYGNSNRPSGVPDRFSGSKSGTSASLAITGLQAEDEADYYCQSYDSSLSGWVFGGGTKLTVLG , field binding result: no binding

Record PSA146/HLA-A*02:01-specific scFv phage clone #9 (scFv, V domains shown) VH: QVQLVQSGAEVKKPGASVKVSCKASGYTFTSYGISWVRQAPGQGLEWMGWISAYNGNTNYAQKLQGRVTMTTDTSTSTAYMELRSLRSDDTAVYYCARSSQYYVWDSWGQGTLVTVSS VL: QSVVTQPPSVSGAPGQRVTISCTGSSSNFGAGYDVHWYQQLPGTAPKLLIYGNSNRPSGVPDRFSGSKSGTSASLAITGLQAEDEADYYCQSYDSSLSGWVFGGGTKLTVLG , field binding result: no binding

Record PSA146/HLA-A*02:01-specific scFv phage clone #12 (scFv, V domains shown) VH: QMQLVQSGSEVKKPGASVKVSCKASGYTFTSYGISWVRQAPGQGLEWMGWISAYNGNTDYVQKLQGRVTMTTDTSTNTAYMELGSLGSDDTAVYYCARTNYNKYDIWGQGTLVTVSS VL: QSVLTQPPSVSGAPGQRVTISCTGSSSNIGAGYDVHWYQQLPGTAPKLLIYGNSNRPSGVPDRFSGSKSGTSASLAITGLQAEDEADYYCQSYDSSLSEVFGTGTKVTVLG , field binding result: no binding
